- system: T1, human CaSR wild type (hCaSR WT) (Homo sapiens, UniProt P41180, E1011Q)
- T1 construct: mGlu5 signal peptide (N, cleaved yes); expressed in transfected cells
- T1 sequence (P41180 20-1078 E1011Q): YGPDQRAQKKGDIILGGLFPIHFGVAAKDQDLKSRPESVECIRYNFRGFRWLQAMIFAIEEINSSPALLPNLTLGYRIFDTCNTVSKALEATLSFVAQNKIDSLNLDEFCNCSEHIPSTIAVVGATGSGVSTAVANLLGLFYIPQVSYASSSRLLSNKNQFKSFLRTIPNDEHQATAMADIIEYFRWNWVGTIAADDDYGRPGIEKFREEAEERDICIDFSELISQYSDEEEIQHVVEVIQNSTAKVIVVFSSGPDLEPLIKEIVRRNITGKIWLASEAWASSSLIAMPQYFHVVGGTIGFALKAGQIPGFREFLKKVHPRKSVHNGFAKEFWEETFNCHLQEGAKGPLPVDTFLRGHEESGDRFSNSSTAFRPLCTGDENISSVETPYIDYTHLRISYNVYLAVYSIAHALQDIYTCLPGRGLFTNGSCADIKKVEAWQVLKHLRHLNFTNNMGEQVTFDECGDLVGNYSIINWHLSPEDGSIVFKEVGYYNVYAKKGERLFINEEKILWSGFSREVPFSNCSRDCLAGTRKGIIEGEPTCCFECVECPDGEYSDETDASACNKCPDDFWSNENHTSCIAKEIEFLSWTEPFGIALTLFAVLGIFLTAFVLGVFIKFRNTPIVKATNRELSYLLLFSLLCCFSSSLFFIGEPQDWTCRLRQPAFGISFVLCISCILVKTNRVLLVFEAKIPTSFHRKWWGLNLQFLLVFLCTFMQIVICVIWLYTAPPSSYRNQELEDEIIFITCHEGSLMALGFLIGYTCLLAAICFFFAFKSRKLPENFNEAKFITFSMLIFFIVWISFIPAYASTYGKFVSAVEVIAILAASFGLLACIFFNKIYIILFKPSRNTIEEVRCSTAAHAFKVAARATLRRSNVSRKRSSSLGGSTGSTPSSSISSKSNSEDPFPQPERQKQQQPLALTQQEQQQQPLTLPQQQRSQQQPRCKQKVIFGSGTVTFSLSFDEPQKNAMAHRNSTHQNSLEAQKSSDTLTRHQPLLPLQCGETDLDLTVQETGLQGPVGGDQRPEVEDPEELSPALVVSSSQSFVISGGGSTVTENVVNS
- procedureText: IP1 accumulation assay, Flp-In HEK293 HA-hCaSR WT cells
- Format: cell-based
- conditionContext: IP1 accumulation at EC20 Ca2+
Listed next: entries and their corresponding Max. response (fold over basal ± S.E.M.), human ortholog.
testReadout: Max. response (fold over basal ± S.E.M.), human ortholog (fold over basal)

- molecule: "Nb2: llama-derived CaSR-specific nanobody acting as PAM, SEQ ID NO:9 (protein, CaSR Nb2) VHH: QVQLVESGGGLVQAGSSLRLSCAASGRTFSNYRMAWFRQAPGKEREFVAVISRGGGGADYADSVKGRFTISRDNVKNTVSLQMNSLKPEDTAVYFCAARISGFSYYTSVDRYDYWGQGTQVTVSS"
  unitsOfMeasure: "fold over basal"
  testResult: 3.52
- molecule: "Nb15: llama-derived CaSR-specific nanobody acting as PAM, SEQ ID NO:10 (protein, CaSR Nb15) VHH: QVQLVESGGGLVQAGGSLRLSCAASGRTFNNYHMAWFRQAPGKEREFAAAISRRAGTTYYADSVKGRFTISRDNAKNTVYLQMNSLKPEDTAVYYCAADPDTYGVSYLARKYDYWGQGTQVTVSS"
  unitsOfMeasure: "fold over basal"
  testResult: 3.38
- molecule: "Nb4: llama-derived CaSR-specific nanobody acting as PAM, SEQ ID NO:5 (protein, CaSR Nb4) VHH: QVQLVESGGGLVQAGGSLRLSCAASGRTFSTYRMGWFRQGLGKEREFVAAITANGVRTFYTDSVKGRFTISRDNAKNTLYLQMNSLQPDDTAVYLCAARRKGIFTVQQAQDITDWDYWGQGTQVTVSS"
  unitsOfMeasure: "fold over basal"
  testResult: 3.74
- molecule: "Nb37: llama-derived CaSR-specific nanobody acting as PAM, SEQ ID NO:4 (protein, CaSR Nb37) VHH: QVQLVESGGGLVQPGDSLRVSCAASGGSFRSYAMAWFRRAPGKEREFVAAMSGTYGSTIYADSMKGRFTISRDNAKKMVYLRMNSLRAEDTAVYYCAGYYSGAYYGTPKTDYTEYDSWGQGTQVTVSS"
  unitsOfMeasure: "fold over basal"
  testResult: 4.04
- molecule: "Nb11: llama-derived CaSR-specific nanobody acting as PAM, SEQ ID NO:6 (protein, CaSR Nb11) VHH: QVQLVESGGGLVQAGGSLRLSCAASGRTFSTYRMGWFRQGPGKEREFVAAITATGVKTYYTDSVKGRFTISRDNAKNTVYLQMNSVQPEDTAVYSCAARIKAIFTAQQAATITDYDYWGQGTQVTVSS"
  unitsOfMeasure: "fold over basal"
  testResult: 3.50
